measured-on: Human Recombinant ROCK-II Enzyme (ROKα/ROCK-II, aa 11-552) (Homo sapiens, UniProt O75116)
Construct: (ROKα/ROCK-II, (aa 11-552), human active)
Sequence (O75116 11-552): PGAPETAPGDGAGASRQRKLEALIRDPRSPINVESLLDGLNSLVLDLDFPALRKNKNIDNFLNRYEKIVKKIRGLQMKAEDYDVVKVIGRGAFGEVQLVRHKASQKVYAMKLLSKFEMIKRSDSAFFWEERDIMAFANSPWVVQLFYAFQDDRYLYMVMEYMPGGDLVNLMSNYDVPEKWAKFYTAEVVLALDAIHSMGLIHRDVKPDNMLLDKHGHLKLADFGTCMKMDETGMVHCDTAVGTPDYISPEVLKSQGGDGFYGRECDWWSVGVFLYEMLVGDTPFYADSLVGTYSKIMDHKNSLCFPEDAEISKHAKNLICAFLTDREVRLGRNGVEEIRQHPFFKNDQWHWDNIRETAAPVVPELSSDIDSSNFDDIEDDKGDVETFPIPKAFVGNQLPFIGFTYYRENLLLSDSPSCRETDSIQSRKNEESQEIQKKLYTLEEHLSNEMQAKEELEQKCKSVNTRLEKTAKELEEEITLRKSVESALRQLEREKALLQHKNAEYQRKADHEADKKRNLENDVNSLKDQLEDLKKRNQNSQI
test-details: ROCK-II inhibition, fluorescence polarization assay (IMAP ROCK II kit)
test-context: substrate 200 nM, ATP 10 μM, 60 min at 23° C., read-out: Enzyme Inhibition Constants (IC50) against Human Recombinant ROCK-II Enzyme
Protocol: The ability of certain compounds of Formula (I) to inhibit rho kinase was evaluated by means of in vitro assays. […] The fluorescence polarization assays are performed using a Biomek 2000 Robotic Workstation (Beckman Instruments, Palo Alto, Calif.) in a 96-well plate format. […] Fluorescence polarization of the reaction mixtures is then measured on the Analyst™ HT instrument (Molecular Devices, Sunnyvale, Calif.). […]
Where a name gives a salt, the structure may show the parent alone.
measurement-type: pIC50
Formally, pIC50 is defined as -log10 of the concentration c, with c in mol/L.

>  <compound>
c1cc(-c2cnc(N3CCCC3)c(N3CCCNCC3)n2)ccn1 [Example 40, hydrochloride]

>  <pIC50>
9.48

$$$$
>  <compound>
c1cc(-c2cnc(N3CCCCC3)c(NC3CCCNC3)n2)ccn1 (stereo not shown)

>  <pIC50>
9.52

$$$$
>  <compound>
COCCN(C)c1ncc(-c2ccncc2)nc1N1CCCN(C)CC1 [Example 29, hydrochloride]

>  <pIC50>
7.35

$$$$
>  <compound>
CN1CCCN(c2nc(-c3ccnc4[nH]ccc34)cnc2N2CCCC2)CC1 [Example 39, dihydrochloride]

>  <pIC50>
9.80

$$$$
>  <compound>
Nc1ncc(-c2ccncc2)nc1N1CCC(O)CC1

>  <pIC50>
8.16

$$$$
>  <compound>
CN1CCC(N(C)c2nc(-c3ccncc3)cnc2N)CC1

>  <pIC50>
8.02

$$$$
>  <compound>
Nc1ncc(-c2ccncc2)nc1N1CCCCC1

>  <pIC50>
7.23

$$$$
>  <compound>
Nc1ncc(-c2ccncc2)nc1NC1CCNC1 (stereo not shown)

>  <pIC50>
10.19

$$$$

Give the reported value of pIC50 for this record: Cc1n[nH]c2ccc(-c3cnc(N4CCCC4)c(N4CCCNCC4)n3)cc12 [Example 43, hydrochloride]
9.96

Give the reported value of pIC50 for this record: CN(C)c1ncc(-c2ccncc2)nc1N1CCN(CCO)CC1 [Example 30, hydrochloride]
9.52

Give the reported value of pIC50 for this record: CN1CCC(Nc2nc(-c3ccncc3)cnc2N)CC1
8.46
